Origin of measurements: PubChem BioAssay

- test_summary: inhibitors of TNFa-induced NFkB p65 translocation, primary screen, imaging, HUVEC, MLSMR starter and 10KST1 sets (AID 438);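 note: compound added about 3h40 before a 20 min TNFalpha stimulation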
- run_conditions: HUVEC TNFa-induced p65 nuclear translocation; measured here: nuclei count (cytotoxicity indicator), at 2.08 µM
# binarize cell count: threshold 400 inclusive, high side y, low side n

Look over these answered cases.
{"compound": "COc1ccc(C2=NOC(C(=O)NCc3ccc(F)cc3)C2)cc1OC (configuration not stated)", "discrete_label": "y"}
{"compound": "O=C(Nc1nnc(SCC(=O)N2CCCCC2)s1)C1CCCCC1", "discrete_label": "y"}

## Input Is cell count at least 400? Consider COc1cccc(OC)c1C(=O)Nc1ccc(CN2CCCCC2)cc1
## Output y

## Input Determine whether this compound has cell count no lower than 400: O=C(NCCCN1CCN(CCCNC(=O)c2ccc(F)cc2)CC1)c1ccc(F)cc1
## Output n

## Input Given CC1=C(C(=O)OC(C)C)C(c2cccc(F)c2)n2ncnc2N1 (configuration not stated) , state whether its cell count is at least 400.
## Output y

## Input Determine whether measured cell count meets or exceeds 400 for COc1ccc(C(=O)OC(COc2ccccc2)Cn2ccnc2)cc1 (configuration not stated)
## Output n

## Input Does the reported cell count for O=C(O)COc1cccc(NC(=O)C2CCCO2)c1 (configuration not stated) fall at or above the 400 mark?
## Output n
